Value source: the supplement of paper PMC10733146

Provide the recorded viability for the entries that follow.
# Test system: primary AML patient cells (S006)
# Protocol Text: viability relative to DMSO control (fraction); higher = less drug effect (more viable cells)
# Details: 15 µM; 48 h
Number only, please.

**Q:** Given the compound CNC(=O)c1cc(Oc2ccc(NC(=O)Nc3ccc(Cl)c(C(F)(F)F)c3)cc2)ccn1 , what is its reported viability?
**A:** 0.378

**Q:** Recorded viability for Nc1nc(=S)c2[nH]cnc2[nH]1 , please?
**A:** 0.0984

**Q:** Form field: reported viability of Cc1cc(Nc2ncc(Cl)c(Nc3ccccc3S(=O)(=O)C(C)C)n2)c(OC(C)C)cc1C1CCNCC1
**A:** 0.0233

**Q:** Using the record for O=C(Nc1cccc(C(F)(F)F)c1)Nc1cc(S(=O)(=O)NC2CC2)ccc1-c1ccsc1 , report its viability.
**A:** 0.993

* * *

# Tested on: primary AML patient cells (S056)
# Protocol Text: viability relative to DMSO control (fraction); higher = less drug effect (more viable cells)
# Details: 0.008 µM; 48 h
Observable: viability
Could you keep your reply to the number by itself?

**Q:** GET /values?readout=viability&item= CC#CC(=O)N1CCC[C@H]1c1nc(-c2ccc(C(=O)Nc3ccccn3)cc2)c2c(N)nccn12
**A:** 1.04

**Q:** Field request: viability | item: Nc1cccc2c1CN(C1CCC(=O)NC1=O)C2=O (centres undefined) [Lenalidomide]
**A:** 1.04

**Q:** Dear colleague, I am looking for the recorded viability of the following compound: Nc1ccc2ncnc(NCCc3ccc(Oc4ccccc4)cc3)c2c1
**A:** 0.691

**Q:** Which value of viability has been reported for COc1cccc2c1C(=O)c1c(O)c3c(c(O)c1C2=O)C[C@@](O)(C(=O)CO)C[C@@H]3O[C@H]1C[C@H](N)[C@H](O)[C@H](C)O1 in the records?
**A:** 0.889

* * *

Assign viability to each entry below.
# Tested on: primary MCL patient cells (S063)
# Protocol Text: viability relative to DMSO control (fraction); higher = less drug effect (more viable cells)
# Details: 0.2 µM; 48 h
Lab note: record the figure alone, no unit after it.

**Q:** Report viability for Cc1nc(Nc2ncc(C(=O)Nc3c(C)cccc3Cl)s2)cc(N2CCN(CCO)CC2)n1 tested on primary MCL patient cells (S063).
**A:** 0.151

**Q:** // fetch primary MCL patient cells (S063) viability for C/C=C1\NC(=O)[C@H]2CSSCC/C=C/[C@H](CC(=O)N[C@H](C(C)C)C(=O)N2)OC(=O)[C@H](C(C)C)NC1=O
**A:** 0.0209

**Q:** Requested read-out viability, target or system primary MCL patient cells (S063), entry CC(C)(C)C[C@@H]1N[C@@H](C(=O)N[C@H]2CC[C@H](O)CC2)[C@H](c2cccc(Cl)c2F)[C@]12C(=O)Nc1cc(Cl)ccc12
**A:** 0.995

**Q:** For the record CCc1cnn2c(NCc3ccc[n+]([O-])c3)cc(N3CCCC[C@H]3CCO)nc12 , what value of viability is listed for primary MCL patient cells (S063)?
**A:** 0.0173

**Q:** Param readout = viability; param system = primary MCL patient cells (S063); param query = C=CC(=O)N1CCC[C@@H](n2nc(-c3ccc(Oc4ccccc4)cc3)c3c(N)ncnc32)C1 ; response: value
**A:** 0.255
